Just for reference, ChEMBL document CHEMBL4312044 is where these values come from.

Form field: remaining at 40 min, 10 µM (one value per entry).
test: Metabolic stability in human liver microsomes assessed as residue remaining at 10 uM incubated for 20 and 40 mins; assay type: ADME, Microsome; conditions: read-out: Stability
Reply numerically in %, unit not repeated.

Below: 5 compounds and their reported remaining at 40 min, 10 µM.
1) CCS(=O)(=O)Nc1ccc(Oc2ccc(C(C)C)cc2)c(-c2cn(C)c(=O)c3cncn23)c1 :: 13.1
2) CCS(=O)(=O)Nc1ccc(Oc2cc(C)ccc2F)c(-c2cn(C)c(=O)c3cncn23)c1 :: 14.1
3) Cn1cc(-c2cc(NS(C)(=O)=O)ccc2Oc2cccc(Br)c2)n2cncc2c1=O :: 45.9
4) CCS(=O)(=O)Nc1ccc(Oc2ccc(F)cc2)c(-c2cn(C)c(=O)c3cncn23)c1 :: 95.2
5) Cn1cc(-c2cc(NS(C)(=O)=O)ccc2Oc2ccc(Br)cc2)n2cncc2c1=O :: 66.7

Respond only with remaining at 40 min, 10 µM recorded for CCS(=O)(=O)Nc1ccc(Oc2ccc(F)cc2F)c(-c2cn(C)c(=O)c3[nH]ccc23)c1 [MIVEBRESIB]
60.8

---

test: Metabolic stability in mouse liver microsomes assessed as residue remaining at 10 uM incubated for 20 and 40 mins; type: ADME, Microsome; settings: read-out: Stability
Reported metric: remaining at 40 min, 10 µM (%)
Field format: number, assumed %, no unit text.

1) CCS(=O)(=O)Nc1ccc(Oc2ccc(F)cc2F)c(-c2cn(C)c(=O)c3cncn23)c1 :: 13.2
2) Cn1cc(-c2cc(NS(C)(=O)=O)ccc2Oc2ccc(F)cc2)n2cncc2c1=O :: 75.9
3) CCS(=O)(=O)Nc1ccc(Oc2ccc(C(C)C)cc2)c(-c2cn(C)c(=O)c3cncn23)c1 :: 17.2
4) Cn1cc(-c2cc(NS(C)(=O)=O)ccc2Oc2cccc(Br)c2)n2cncc2c1=O :: 67.2
5) Cn1cc(-c2cc(NS(C)(=O)=O)ccc2Oc2ccc(Br)cc2)n2cncc2c1=O :: 61.2
6) CCS(=O)(=O)Nc1ccc(Oc2cc(C)ccc2F)c(-c2cn(C)c(=O)c3cncn23)c1 :: 4.6
7) CCS(=O)(=O)Nc1ccc(Oc2ccc(-c3c(C)noc3C)cc2)c(-c2cn(C)c(=O)c3cncn23)c1 :: 48.2
8) CCS(=O)(=O)Nc1ccc(Oc2cc(F)ccc2C)c(-c2cn(C)c(=O)c3cncn23)c1 :: 11.2
9) CCS(=O)(=O)Nc1ccc(Oc2ccc(F)cc2)c(-c2cn(C)c(=O)c3cncn23)c1 :: 65.6
10) CCS(=O)(=O)Nc1ccc(Oc2cc(F)c(F)c(F)c2)c(-c2cn(C)c(=O)c3cncn23)c1 :: 36

Let's switch to this compound now.
Note remaining at 40 min, 10 µM for the compound shown: CCS(=O)(=O)Nc1ccc(Oc2ccc(F)cc2F)c(-c2cn(C)c(=O)c3[nH]ccc23)c1 [MIVEBRESIB]
60.9

---

target: Bromodomain-containing protein 4 (Homo sapiens, UniProt O60885); experiment: Inhibition of BRD4 bromodomain1 (unknown origin) using peptide H4 as substrate incubated for 15 mins followed by substrate addition and measured after 1 hr by alphascreen assay
Reported metric: IC50
A complete answer gives the number followed by the unit.

1. CCS(=O)(=O)Nc1ccc(Oc2cc(C)ccc2F)c(-c2cn(C)c(=O)c3cncn23)c1 :: 0.046 µM
2. CCS(=O)(=O)Nc1ccc(Oc2ccc(F)cc2)c(-c2cn(C)c(=O)c3cncn23)c1 :: 0.03 µM
3. CCS(=O)(=O)Nc1ccc(Oc2cccc(-c3c(C)noc3C)c2)c(-c2cn(C)c(=O)c3cncn23)c1 :: 0.092 µM
4. CCS(=O)(=O)Nc1ccc(Oc2cc(F)c(F)c(F)c2)c(-c2cn(C)c(=O)c3cncn23)c1 :: 0.046 µM

Then there is this compound:
Given the compound `CCS(=O)(=O)Nc1ccc(Oc2ccc(-c3c(C)noc3C)cc2)c(-c2cn(C)c(=O)c3cncn23)c1` , write its reported IC50.
0.064 µM
